# Test system: HT29 tumor cells
# assayNotes: In vitro cell proliferation inhibition (CellTiterGlo)
# Type: cell-based
# experimentalSetup: Homo sapiens, HT-29
# Protocol: The ability of compounds to inhibit the proliferation of HT29 tumor cells was measured. The assay compound was dissolved in 100% DMSO to prepare 10 mM stock solution. • a) UV light of a biological safety cabin was turned on, and 30 minutes were counted down; • b) In a 37° C. water bath, RPMI1640 medium and trypsin were preheated; • c) After completion of the UV irradiation, the biological safety cabin was opened. […] The signal value was then detected. […]
measuredProperty: IC50 (nM)

1. Cc1cccc(CN2C(=O)c3nc(-c4nc(NC5CCOCC5)ncc4C)sc3C2(C)C)n1 : 46
2. Cc1cccc(CN2C(=O)c3nc(-c4nc(Nc5ccnn5C)ncc4C)sc3C2(C)C)n1 : 21
